# assayed.system: CIB1 and αIIb interaction (CIB1-GST : F-αIIb peptide) (Homo sapiens, UniProt Q99828)
# Construct: made in house; host or cells: BL-21 plus RIL cells (E. coli)
# Sequence (Q99828 whole entry): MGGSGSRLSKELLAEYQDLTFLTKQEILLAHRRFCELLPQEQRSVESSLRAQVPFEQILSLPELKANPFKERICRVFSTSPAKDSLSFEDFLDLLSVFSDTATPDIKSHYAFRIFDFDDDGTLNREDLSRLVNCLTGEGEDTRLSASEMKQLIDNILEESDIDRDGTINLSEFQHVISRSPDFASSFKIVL
# protocol.notes: FP assay, 1536-well qHTS format (primary and confirmatory screen)
# Format: binding
# measurement.setup: qHTS primary screen hits, Table S2; negative = inhibition
Decide using Efficacy (%): a value greater than or equal to -40% is condition met, a smaller one is condition not met.

INSERT INTO results (compound, assayed_system, class) VALUES
  ('C[C@H]1COC2=C1C(=O)C(=O)c1c2ccc2c1CCCC2(C)C [NCGC00163650-02]', 'CIB1 and αIIb interaction (CIB1-GST : F-αIIb peptide) (Homo sapiens, UniProt Q99828)', 'condition met'),
  ('CCC(=O)NC(c1cccs1)c1ccc2cccnc2c1O (stereo not shown) [NCGC00182903-03]', 'CIB1 and αIIb interaction (CIB1-GST : F-αIIb peptide) (Homo sapiens, UniProt Q99828)', 'condition met'),
  ('CCOC(=O)c1ccc(O)c2ncc(N3CCC(C(=N)N)CC3)cc12.O=C(O)C(F)(F)F [NCGC00241051-01]', 'CIB1 and αIIb interaction (CIB1-GST : F-αIIb peptide) (Homo sapiens, UniProt Q99828)', 'condition not met'),
  ('O=C1C=CC(=O)N1c1cccc(Br)c1 [NCGC00373120-01]', 'CIB1 and αIIb interaction (CIB1-GST : F-αIIb peptide) (Homo sapiens, UniProt Q99828)', 'condition not met'),
  ('Cc1ccnc(NC(=S)N2CCc3ccccc3C2)c1.O=C(O)C(F)(F)F [NCGC00241083-01]', 'CIB1 and αIIb interaction (CIB1-GST : F-αIIb peptide) (Homo sapiens, UniProt Q99828)', 'condition met'),
  ('O=C1CCC(N2C(=O)c3ccccc3C2=O)C(=O)N1 (stereo not shown) [NCGC00015989-17]', 'CIB1 and αIIb interaction (CIB1-GST : F-αIIb peptide) (Homo sapiens, UniProt Q99828)', 'condition met'),
  ('COc1ccc2c(c1)c(CC(=O)O)c(C)n2Cc1ccc(Cl)cc1 [NCGC00015217-05]', 'CIB1 and αIIb interaction (CIB1-GST : F-αIIb peptide) (Homo sapiens, UniProt Q99828)', 'condition not met'),
  ('Nc1ccc2nc3c(=O)n(CCc4ccccc4)c(=O)[nH]c3nc2c1.O=C(O)C(F)(F)F [NCGC00356558-01]', 'CIB1 and αIIb interaction (CIB1-GST : F-αIIb peptide) (Homo sapiens, UniProt Q99828)', 'condition not met'),
  ('COc1ccc(-n2ncc3c2CCCC3NC(=O)c2ccccc2F)cc1.O=C(O)C(F)(F)F (stereo not shown) [NCGC00273507-01]', 'CIB1 and αIIb interaction (CIB1-GST : F-αIIb peptide) (Homo sapiens, UniProt Q99828)', 'condition not met'),
  ('Oc1c(I)cc(Cl)c2cccnc12 [NCGC00016391-13]', 'CIB1 and αIIb interaction (CIB1-GST : F-αIIb peptide) (Homo sapiens, UniProt Q99828)', 'condition met'),
  ('Cc1ccc(S(=O)(=O)Nc2cnccc2C(=O)Nc2nc(C(=O)O)cs2)cc1.O=C(O)C(F)(F)F [NCGC00343903-01]', 'CIB1 and αIIb interaction (CIB1-GST : F-αIIb peptide) (Homo sapiens, UniProt Q99828)', 'condition met'),
  ('Cn1ccc(=Nc2ccc(NC(=O)c3ccc(/N=c4/ccn(C)c5ccc([N+](=O)[O-])cc45)cc3)cc2)cc1.O=C(O)C(F)(F)F [NCGC00356208-01]', 'CIB1 and αIIb interaction (CIB1-GST : F-αIIb peptide) (Homo sapiens, UniProt Q99828)', 'condition met'),
  ('Cc1ccc(N[S+](=O)([O-])c2cc3c(cc2N[C@@H](C)CO)NC(=O)CC3)cc1N[C@@H](C)CO [NCGC00189369-01]', 'CIB1 and αIIb interaction (CIB1-GST : F-αIIb peptide) (Homo sapiens, UniProt Q99828)', 'condition met'),
  ('CCOC(=O)c1c(NC(=O)CN2CCCCC2)sc2c1CCN(C(=O)OCC)C2.O=C(O)C(F)(F)F [NCGC00092717-02]', 'CIB1 and αIIb interaction (CIB1-GST : F-αIIb peptide) (Homo sapiens, UniProt Q99828)', 'condition met'),
  ('COc1ccc(C2CC(=O)Nc3nc(N4CCCCC4)sc32)c(OC)c1.O=C(O)C(F)(F)F (stereo not shown) [NCGC00488246-02]', 'CIB1 and αIIb interaction (CIB1-GST : F-αIIb peptide) (Homo sapiens, UniProt Q99828)', 'condition not met');
